Biological target: T1, GIP receptor (UniProt P48546 22-466)
T1 sequence (looked up): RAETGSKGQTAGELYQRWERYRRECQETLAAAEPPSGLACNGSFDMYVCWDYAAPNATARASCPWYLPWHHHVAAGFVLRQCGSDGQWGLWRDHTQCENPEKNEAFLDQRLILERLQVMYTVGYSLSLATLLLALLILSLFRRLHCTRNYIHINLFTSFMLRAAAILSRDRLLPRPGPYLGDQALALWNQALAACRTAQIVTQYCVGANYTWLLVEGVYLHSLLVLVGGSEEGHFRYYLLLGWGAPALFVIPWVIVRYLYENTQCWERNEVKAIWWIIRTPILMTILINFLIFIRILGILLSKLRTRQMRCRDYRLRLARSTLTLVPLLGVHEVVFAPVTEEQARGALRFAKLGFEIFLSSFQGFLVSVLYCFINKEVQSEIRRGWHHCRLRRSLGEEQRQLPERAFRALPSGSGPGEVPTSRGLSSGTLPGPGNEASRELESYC
Assay: cell-based or functional assay
Bridges are numbered along the chain shown (N, C = ends). Where no end group is shown, it is not given here. [ ]: non-standard residue; d: D form. The star is where a group is joined. Myristoyl = CCCCCCCCCCCCCC(=O)*; PEG = not defined here; Aib = CC(C)(N)C(=O)O
readoutKind: EC50, nM; GIP Receptor (nM)
Write the number in nM without appending the unit.

Need EC50, nM; GIP Receptor, item Y[Aib]EGTFTSDYSIYLDEQAAKEFVNWLLAGGPSSGAPPPSC(PEG)-NH2 (lactam 16-20; reading uncertain; also: PEG on Cys40 via thioether from haloacetyl) [mt-294]
0.373

Need EC50, nM; GIP Receptor, item Y[Aib]EGTFTSDYSIYLDKQAA[Aib]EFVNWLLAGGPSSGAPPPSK(Myristoyl)C-NH2 (also: homodimer: two monomers linked by a disulfide bond between their C-terminal Cys41 residues) [mt-354]
0.0046

Need EC50, nM; GIP Receptor, item YXEGTFTSDYSIYLDKQAAXEFVNWLLAGGPSSGAPPPSKC (C-terminal amide; acylation at position 40 of each monomer, no spacer; monomers linked via a PEG at C-terminal Cys residues) [mt-377]
0.0031
